test system: M. fortuitum ATCC 110; test: MIC, M. fortuitum ATCC 110; assay type: cell-based; settings: Mycolicibacterium fortuitum, ATCC110; Table XIV A. Gram-positive bacteria
Counter-ions that a name gives are not always drawn.
Each entry below carries its reported MIC.

compound	MIC / µg/mL
Cc1cccc(C(CCNCCCN)c2cn(C3CCCCC3)c3cc(Br)ccc23)c1.Cl.Cl (centres unmarked)	4
Cc1cccc(C(CCNC2CCNCC2)c2cn(CC3CCCCC3)c3ccccc23)c1.Cl (centres unmarked)	2
NCCCNCCC(c1cccc(OC(F)(F)F)c1)c1cn(C2CCCCC2)c2ccccc12 (centres unmarked)	4
Cc1cccc(-c2ccc3c(c2)c(CCCNCCCN)cn3C2CCCCC2)c1.Cl.Cl	4
Cc1cccc(-c2ccc3c(c2)c(CCCNCC(O)CN)cn3C2CCCCC2)c1 (centres unmarked)	2
N[C@H]1CC[C@H](NC2CCC(c3cn(CC4CCCCC4)c4ccc(Br)cc34)CC2)CC1 (single isomer, unassigned) [Compound 266, hydrochloride salt]	2
Cc1cccc(-c2ccc3c(c2)c(CCN[C@H]2CC[C@H](N)CC2)cn3CC2CCCCC2)c1 [Compound 225, hydrochloride salt]	1
Cc1cccc(C(CCN[C@H]2CC[C@H](N)CC2)c2cn(CC3CCCCC3)c3ccccc23)c1 (some centres unmarked) [Compound 199, hydrochloride]	2
Cc1cccc(C(CCNC2CCC(N)CC2)c2cn(CC3CCCCCC3)c3ccccc23)c1 (centres unmarked) [Compound 245, hydrochloride salt]	2
COc1ccccc1-c1ccc2c(c1)c(CCCN[C@H]1CC[C@H](N)CC1)cn2CC1CCCCC1 [Compound 237, hydrochloride salt]	2
NC1CCC(NCCC(c2cccc(OC(F)(F)F)c2)c2cn(CC3CCCCC3)c3ccccc23)CC1 (centres unmarked) [Compound 173, hydrochloride salt]	2
Cl.Cl.NCCCNCCC(c1cn(C2CCCCC2)c2ccccc12)C1CCCCC1 (centres unmarked)	4
Cc1cccc(-c2ccc3c(c2)c(C2CCCC(NCCCN)C2)cn3C2CCCCC2)c1 (centres unmarked)	4
N#Cc1ccc2c(c1)c(C(CCNCCCN)c1cccc(OC(F)(F)F)c1)cn2C1CCCCC1 (centres unmarked) [Compound 372, dihydrochloride salt]	4

Recorded values, source patent US20210246115A1.
